Consider the following Ki values measured on human 5-HT2B receptor (Homo sapiens, UniProt P41595).
Sequence (P41595 whole entry): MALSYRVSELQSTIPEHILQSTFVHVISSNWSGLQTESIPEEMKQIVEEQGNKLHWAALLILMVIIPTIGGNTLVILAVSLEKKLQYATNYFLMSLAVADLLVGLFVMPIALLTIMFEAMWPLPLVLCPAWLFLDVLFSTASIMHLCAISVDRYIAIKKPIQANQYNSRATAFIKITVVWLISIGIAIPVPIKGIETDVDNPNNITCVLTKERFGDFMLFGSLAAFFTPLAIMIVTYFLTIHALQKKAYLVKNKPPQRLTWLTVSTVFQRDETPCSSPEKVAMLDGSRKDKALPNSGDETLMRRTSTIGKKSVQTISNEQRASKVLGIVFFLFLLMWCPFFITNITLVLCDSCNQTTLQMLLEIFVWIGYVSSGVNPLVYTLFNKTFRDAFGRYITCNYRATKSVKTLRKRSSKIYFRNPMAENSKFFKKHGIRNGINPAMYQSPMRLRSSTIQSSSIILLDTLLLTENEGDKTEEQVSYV
parameter.measured: Ki (nM)

Please review the entries below; each comes with its answer.
{"columns": ["molecule", "unit.tag", "Ki"],
 "data": [
  ["Cc1c(C(=O)N=C(N)N)cc(C2CCCC2)n1CCc1ccc(F)cc1 [Example 52]", "nM", 0.48],
  ["Cc1c(C(=O)NCCN(C)C)cc(-c2ccsc2)n1CCc1ccc(F)cc1 [Example 187]", "nM", 0.68],
  ["Cc1c(C(=O)NCCN(C)C)cc(C(C)(C)C)n1OCc1ccc(F)cc1 [Example 211]", "nM", 7.5],
  ["Cc1c(C(=O)N[C@@H]2CCN(C)C2)c(C)n(CCc2ccc(F)cc2)c1C(C)(C)C [Example 217]", "nM", 2.3],
  ["Cc1c(C(=O)N[C@H]2CCN(C)C2)c(C)n(CCc2ccc(F)cc2)c1C(C)(C)C [Example 218]", "nM", 9.2]
]}

P: Cc1c(C(=O)NC[C@@H]2CCCN2C)cc(C(C)(C)C)n1CCc1ccc(F)cc1 [Example 161]
Q: Cc1c(C(=O)N[C@@H]2CCN(C)C2)cc(C(C)(C)C)n1CCc1ccc(F)cc1 [Example 154]
Input: I'm curious, which of these has a smaller Ki number: P or Q ? Pick one; state its label.
Output: Q
(Q: 2.1 nM, P: 8.4 nM)

Where do the numbers come from? From patent US8222274B2.
